The reported measurements were obtained from paper PMC5736782.

# Mdr1a/1b (-/-) ‘F’ estimate by model fit [95% CI) per entry
# System: P-glycoprotein (Mdr1a/Mdr1b) in isolated perfused mouse lung
# experimentalDetails: Isolated perfused mouse lung (IPML) airway-to-perfusate absorption, Mdr1a/1b (+/+) vs (−/−)
# measurementContext: male, mouse, 50 μM

*Q* Reported Mdr1a/1b (-/-) ‘F’ estimate by model fit [95% CI), molecule CC(C)(C)NCC(O)c1ccc(O)c(CO)c1 (centres unmarked) : ____
*A* 30.2 [28.2 to 32.2]

*Q* Reported Mdr1a/1b (-/-) ‘F’ estimate by model fit [95% CI), molecule O=C1c2c(O)ccc(O)c2C(=O)c2c(NCCNCCO)ccc(NCCNCCO)c21 : ____
*A* 24.9 [20.8 to 28.9]

*Q* Reported Mdr1a/1b (-/-) ‘F’ estimate by model fit [95% CI), molecule C[C@H]1O[C@@H](O[C@H]2[C@@H](O)C[C@H](O[C@H]3[C@@H](O)C[C@H](O[C@H]4CC[C@@]5(C)[C@H](CC[C@@H]6[C@@H]5C[C@@H](O)[C@]5(C)[C@@H](C7=CC(=O)OC7)CC[C@]65O)C4)O[C@@H]3C)O[C@@H]2C)C[C@H](O)[C@@H]1O : ____
*A* 49.8 [38.4 to 61.3]

Next:
*Q* Reported Mdr1a/1b (-/-) ‘F’ estimate by model fit [95% CI), molecule OCc1cc(C(O)CNCCCCCCOCCCCc2ccccc2)ccc1O (centres unmarked) : ____
*A* 57.3 [48.3 to 66.3]

* * *

# System: P-gp (Mdr1a/1b) in mouse intestinal segments
# experimentalDetails: Ussing chamber intestinal permeability, ileal segments Mdr1a/1b (+/+) vs (−/−)
# measurementContext: wild-type intestinal segments, mucosal to serosal, 50 μM, 180 min
# Mdr1a/1b (+/+) Permeability coefficient per entry

Examples from the recorded data:
*Q* Entry O=C1c2c(O)ccc(O)c2C(=O)c2c(NCCNCCO)ccc(NCCNCCO)c21 , system P-gp (Mdr1a/1b) in mouse intestinal segments: what Mdr1a/1b (+/+) Permeability coefficient was measured?
*A* 4.69 ± 1.06 cm/s (x10^−6)

*Q* Entry CC[C@H]1OC(=O)[C@H](C)[C@@H](O[C@H]2C[C@@](C)(OC)[C@@H](O)[C@H](C)O2)[C@H](C)[C@@H](O[C@@H]2O[C@H](C)C[C@H](N(C)C)[C@H]2O)[C@](C)(O)C[C@@H](C)C(=O)[C@H](C)[C@@H](O)[C@]1(C)O , system P-gp (Mdr1a/1b) in mouse intestinal segments: what Mdr1a/1b (+/+) Permeability coefficient was measured?
*A* 3.02 ± 1.15 cm/s (x10^−6)

*Q* Entry CC(C)(C)NC(=O)[C@@H]1C[C@@H]2CCCC[C@@H]2CN1C[C@@H](O)[C@H](Cc1ccccc1)NC(=O)[C@H](CC(N)=O)NC(=O)c1ccc2ccccc2n1 , system P-gp (Mdr1a/1b) in mouse intestinal segments: what Mdr1a/1b (+/+) Permeability coefficient was measured?
*A* 1.56 ± 0.69 cm/s (x10^−6)

*Q* Entry COc1cc2c(c(OC)c1OC)-c1ccc(OC)c(=O)cc1[C@@H](NC(C)=O)CC2 , system P-gp (Mdr1a/1b) in mouse intestinal segments: what Mdr1a/1b (+/+) Permeability coefficient was measured?
*A* 6.93 ± 3.15 cm/s (x10^−6)

*Q* Entry OCc1cc(C(O)CNCCCCCCOCCCCc2ccccc2)ccc1O (centres unmarked) , system P-gp (Mdr1a/1b) in mouse intestinal segments: what Mdr1a/1b (+/+) Permeability coefficient was measured?
*A* 15.8 ± 2.16 cm/s (x10^−6)

*Q* Entry COC(=O)c1ccccc1-c1c2ccc(=N)cc-2oc2cc(N)ccc12.Cl , system P-gp (Mdr1a/1b) in mouse intestinal segments: what Mdr1a/1b (+/+) Permeability coefficient was measured?
*A* 9.06 ± 1.81 cm/s (x10^−6)

Next:
*Q* Entry CN1CCC[C@@H]1Cc1c[nH]c2ccc(CCS(=O)(=O)c3ccccc3)cc12 , system P-gp (Mdr1a/1b) in mouse intestinal segments: what Mdr1a/1b (+/+) Permeability coefficient was measured?
*A* 4.90 ± 2.51 cm/s (x10^−6)

*Q* Entry CC(C)(C)NCC(O)c1ccc(O)c(CO)c1 (centres unmarked) , system P-gp (Mdr1a/1b) in mouse intestinal segments: what Mdr1a/1b (+/+) Permeability coefficient was measured?
*A* 10.6 ± 2.30 cm/s (x10^−6)

*Q* Entry C[C@H]1O[C@@H](O[C@H]2[C@@H](O)C[C@H](O[C@H]3[C@@H](O)C[C@H](O[C@H]4CC[C@@]5(C)[C@H](CC[C@@H]6[C@@H]5C[C@@H](O)[C@]5(C)[C@@H](C7=CC(=O)OC7)CC[C@]65O)C4)O[C@@H]3C)O[C@@H]2C)C[C@H](O)[C@@H]1O , system P-gp (Mdr1a/1b) in mouse intestinal segments: what Mdr1a/1b (+/+) Permeability coefficient was measured?
*A* 6.04 ± 1.46 cm/s (x10^−6)

*Q* Entry COc1ccc(C[C@H](N)C(=O)N[C@H]2[C@@H](O)[C@H](n3cnc4c(N(C)C)ncnc43)O[C@@H]2CO)cc1 , system P-gp (Mdr1a/1b) in mouse intestinal segments: what Mdr1a/1b (+/+) Permeability coefficient was measured?
*A* 5.83 ± 2.38 cm/s (x10^−6)

*Q* Entry CCc1cc2c(cc1CC)CC(NC[C@H](O)c1ccc(O)c3[nH]c(=O)ccc13)C2 , system P-gp (Mdr1a/1b) in mouse intestinal segments: what Mdr1a/1b (+/+) Permeability coefficient was measured?
*A* 15.2 ± 2.79 cm/s (x10^−6)
